# protocol: E. coli growth modulation, two-sided OD650, primary screen, E. coli filamentation project, strain DRC41, 24 h (AID 1093);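 note: MC1000 strain lacking acrAB efflux and sulA so SOS filamentation is blocked; test concentration not given here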
# condition: OD650, 24 h, higher = more signal, called active from +8 up or from −8 down
Respond with true for z-score values of 0.4 and above, false for values below.

Reference set (3 entries):
Please tell me: is the compound O=C/C=C/c1ccc(-c2ccccc2)cc1 at or over 0.4 in terms of z-score?
false

One more compound: C=C(/C=C\CNS(=O)(=O)c1ccc(C)cc1)[C@H](O)[C@H]1CCCN1S(=O)(=O)c1ccccc1[N+](=O)[O-]
true

Thanks! And CCCNC(=O)[C@@]1(Sc2ccc(C)cc2)CC(=O)N(Cc2cc(C(F)(F)F)cc(C(F)(F)F)c2)[C@@H]1c1ccc(CO)cc1 ?
false

---
Check this compound for z-score at or above 0.4: [N-]=[N+]=Nc1ccccc1C[C@]1(C(N)=O)COC(c2ccc(OCCCO)cc2)=N1
false

// next record N#Cc1ccc(NN2C(C(O)c3ccc(B(O)O)cc3)C=CC3CN(c4ccccc4)C(=O)C32)cc1 (stereo not drawn)
true

Similarly, C=C[C@H](C)[C@@H](OC(=O)Nc1ccc(SC)cc1)c1ccc(OCCO)cc1 ?
true

Also check C=CCNC(=O)[C@@H]1[C@H]2C(=O)O[C@H](c3ccccc3)[C@H](c3ccccc3)N2[C@H](c2ccc(OCCO)cc2)[C@@]12C(=O)Nc1ccc(C#CCNC(N)=O)cc12
false

Please answer likewise for COc1ccc(C(=O)Nc2ccc(CN3C(=O)[C@]4(O[C@H](CC(=O)N(CCO)Cc5ccccc5)[C@@H]([Si](C)(C)c5ccc(OC)cc5)[C@@H]4C)c4ccccc43)cc2)cc1
true

* * *

# protocol: E. coli acrAB mutant growth effects, primary screen, E. coli filamentation inducers, strain DRC39, OD650, 48 h (AID 1179);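 note: screen aims at cell division blockers that make cells filament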
# condition: E. coli DRC39 delta-acrAB growth, higher = more signal, called active from +8 up or from −8 down
The source made the active and inactive calls.
readout label: z-score

Return reported z-score; argument: COC(=O)Cn1c(C(=O)N(C)C)cc2c1C[C@H]1CN(C(=O)c3ccccc3)[C@@](Cc3ccccc3)(C(=O)OC)[C@@H]21
-1.15 (inactive)

Note, next up: C=C(C(=O)CC[C@@H](OC(=O)c1cccnc1)c1cccc(OCCO)c1)C(C)C
0.816 (inactive)

# repeat for CCCC=C(CCC)[C@@H](NC(=O)c1ccc(C(=O)OC)cc1)c1ccc(C(=O)OC)cc1
-0.486 (inactive)

Queued: COc1ccc([Si](C)(C)[C@H]2[C@H](CCO)O[C@@]3(C(=O)N(Cc4ccccc4)c4ccc(NC(=O)[C@H](C)O)cc43)[C@@H]2C)cc1
0.723 (inactive)

Also need COC(=O)[C@@]1(Cc2ccccc2)[C@H]2c3cc(C(=O)N(C)C)n(Cc4ccc(Cl)c(C(F)(F)F)c4)c3C[C@H]2CN1C(=O)c1ccccc1 , thanks.
-0.744 (inactive)

What do you have for O=C1C2C=CC(C(O)c3ccccn3)N(Nc3ccc([N+](=O)[O-])cc3)C2C(=O)N1c1ccccc1 (stereo not drawn) ?
-0.462 (inactive)

Lookup Cc1ccc(S(=O)(=O)N2[C@@H](c3ccccc3)C(C(=O)O)=CC[C@H]2c2ccc(F)cc2)cc1
0.0973 (inactive)

Then what about the compound CCCCC(=C=CC[C@@H](O)c1ccccc1OCCO)C[C@@H](O)c1ccccn1 ?
0.52 (inactive)

* * *

Measured composite z-score of individual entries
# protocol: small-molecule microarray binders of probe aDKK1, primary screen, biochemical, biotinylated probe, 635/667 nm fluorescence (AID 1099);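 note: score merges 667nm spot fluorescence with signal to noise across triplicate slides; reference of the scale not given here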
# condition: higher = more signal
Answer as a number with no unit attached.

Here are 4 molecules together with their reported answers.
Using the record for Cc1ccc(N2C(=O)c3ccccc3[C@@H](C(=O)NCCN3CCOCC3)[C@@H]2c2ccc(CO)cc2)nc1 , report its composite z-score.
0.0086

Proceed to C=CCNC(=O)[C@@H]1[C@H]2C(=O)O[C@H](c3ccccc3)[C@H](c3ccccc3)N2[C@H](c2ccc(OCCO)cc2)[C@@]12C(=O)Nc1ccc(C#CC3=CCCCC3)cc12
-0.297

Now the molecule COCCCNC(=O)[C@@]1(Cc2ccccc2I)c2ccccc2C(=O)N(Cc2ccccc2C(F)(F)F)[C@H]1c1ccc(CO)cc1
0.201

Same lookup for C=C(COC)C(=O)CC[C@@H](OC(=O)c1ccccc1-c1ccccc1C(=O)O)c1ccccc1OCCO , please.
-0.0934

Others:
I would be grateful if you could share the reported composite z-score for CCCCN1CC=CC23O[C@@H]4/C=C\CCCOC(=O)C4[C@H]2C(=O)N(CCCCCCO)[C@@H]3C1=O (some centres not stated) .
-0.196

Another: COC(=O)C1=CC(c2ccc(CO)cc2)=CC(C2CC2)N(Cc2cc3c(cc2Br)OCO3)C=C1C(=O)OC (configuration not stated)
0.706

Also COC(=O)C(CC#Cc1ccc2c(c1)[C@]1(C(=O)N2)[C@H](C(=O)N2CCN(c3ncccn3)CC2)[C@H]2C(=O)O[C@H](c3ccccc3)[C@H](c3ccccc3)N2[C@@H]1c1ccc(O)cc1)C(=O)OC , if possible.
2.26

Further, for COc1ccc([Si](C)(C)[C@H]2[C@H](CC(=O)N3CCC[C@H]3CO)O[C@@]3(C(=O)N(C)c4c(Br)cc(C)cc43)[C@@H]2C)cc1 ?
0.94

* * *

# protocol: fission yeast growth modulation, primary screen, strain 972, OD600, 24 h, no modulator (AID 1090);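 note: basal condition with compound alone and no growth modifier present; test concentration not given here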
# condition: S. pombe 972 growth, higher = more signal, called active from +8 up or from −8 down
readout label: z-score
Would you mind answering with just the numeric figure?

Would you please look over these solved cases?
Give its z-score value. Item: CC1CC/C=C\[C@H]2OC34C=CCN(CCN5CCOCC5)C(=O)[C@H]3N(C(CO)C(C)C)C(=O)[C@@H]4C2C(=O)O1 (stereo partly drawn)
-0.145

Now try O=C1O[C@@H](c2ccccc2)[C@@H](c2ccccc2)N2[C@@H](c3ccccc3OCCO)[C@]3(C(=O)Nc4ccc(C#CC5(O)CCCCCC5)cc43)[C@@H](C(=O)N3CCCCCCC3)[C@H]12 .
-0.51

Another molecule: CC(C)c1ccc(NN2C(C(O)C3CCCCC3)C=CC3C(=O)N(c4ccccc4)C(=O)C32)cc1 (stereo not drawn)
0.361

Further cases:
What value of measured z-score is listed for CCOC(=O)C[C@H]1[C@H](OC(=O)c2ccccc2-c2ccccc2)[C@@H](NC(=O)CC(C)C)c2cc(OCCCO)ccc2N1C(=O)c1ccccc1 ?
-0.613

Ok, now C=CCOC(=O)[C@@H]1[C@H]2C(=O)O[C@H](c3ccccc3)[C@H](c3ccccc3)N2[C@H](c2ccc(OCCOC(=O)[C@@H]3C[C@@H]4C(=O)N[C@@H](CC(C)C)C(=O)N4[C@@H]3c3ccc(O)cc3)cc2)[C@@]12C(=O)Nc1ccc(I)cc12
1.63

* * *

# target system: E3 ubiquitin-protein ligase XIAP (Homo sapiens) (UniProt P98170)
# Sequence (P98170 whole entry, looked up): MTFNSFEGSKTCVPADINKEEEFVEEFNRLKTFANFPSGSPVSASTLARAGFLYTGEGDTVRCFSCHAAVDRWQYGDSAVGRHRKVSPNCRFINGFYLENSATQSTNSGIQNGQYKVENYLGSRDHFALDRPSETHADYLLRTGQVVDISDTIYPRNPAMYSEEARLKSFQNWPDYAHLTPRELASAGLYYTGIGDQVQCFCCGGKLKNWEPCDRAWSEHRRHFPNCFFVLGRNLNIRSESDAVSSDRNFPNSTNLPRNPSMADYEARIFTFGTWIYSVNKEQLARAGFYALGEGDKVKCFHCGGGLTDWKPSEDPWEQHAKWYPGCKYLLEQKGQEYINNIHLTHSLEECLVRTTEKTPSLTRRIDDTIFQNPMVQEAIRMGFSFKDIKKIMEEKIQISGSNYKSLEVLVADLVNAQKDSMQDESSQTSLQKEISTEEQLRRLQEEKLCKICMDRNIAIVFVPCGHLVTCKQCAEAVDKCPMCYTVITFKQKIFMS
# protocol: XIAP binders, primary screen, biophysical, small-molecule microarray, fluorescence 635 nm (AID 1181);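 note: score merges 667 nm emission and signal to noise over triplicate slides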
# condition: small-molecule microarray binding, higher = more signal
readout label: composite z-score
Give the figure by itself; no unit, no explanation.

Item CCOC(=O)C1=CC[C@@H](c2ccccc2)N(S(=O)(=O)c2ccc(C)cc2)[C@@H]1C#N has what recorded composite z-score?
-0.207

Input CN1C(=O)C2CC=C(C3=CCO[C@@H]3[C@H]3CCCN3S(=O)(=O)c3ccccc3[N+](=O)[O-])CC2C1=O (some centres undefined)
-0.187

Would you mind doing [N-]=[N+]=Nc1ccccc1C[C@@]1(C(=O)NCc2ccccc2)N=C(c2ccc(OCCCO)cc2)O[C@@H]1c1ccccc1 as well?
0.204

Now consider O=C1C[C@@](C(=O)NCC(F)(F)F)(c2ccc([N+](=O)[O-])cc2)[C@@H](c2ccc(CO)cc2I)N1CC12CC3CC(CC(C3)C1)C2 .
-0.0287

* * *

# System: Human papillomavirus type 1a E7 protein (residues 1-88)
# protocol: HPV1a E7 small-molecule binders, primary screen, biochemical, small-molecule microarray, residues 1-88, 635 nm (AID 1129)
# condition: small-molecule microarray binding, fluorescence 635 nm; higher = more signal
The entries below come with measured composite z-score values attached.
Format: numeric value only, no unit, no commentary.

I have this molecule here, C[C@]1(C(=O)NC2CC2)c2ccccc2C(=O)N(Cc2cc(F)cc(C(F)(F)F)c2)[C@H]1c1ccc(CO)cc1 , and I need its recorded composite z-score.
-0.0534

And for COCCOC(=O)N1C(=O)[C@@]2(c3cc(C#CCNC(N)=O)ccc31)[C@H](c1ccccc1OCCO)N1[C@H](c3ccccc3)[C@H](c3ccccc3)OC(=O)[C@H]1[C@@H]2C(=O)N1CCCCCCC1 ?
1.17

Then C=C(C(=O)CC[C@H](OC(=O)c1ccccc1-c1ccccc1C(=O)O)c1ccc(OCCO)cc1)C(C)C ?
1.16

Quick one: C=C(CCCC)/C(=C/C[C@@H](OC(C)=O)c1cccc(OCCO)c1)c1cc(C(=O)OC)ccc1OC
0.0538

Cool, now [N-]=[N+]=NCc1ccccc1C[C@]1(C(=O)N2CCCCC2)COC(c2ccc(OCCCO)cc2)=N1
1.07
